Values were extracted from patent US20150191542A1.

Target: T1, MICA*001 expressed on transfected cells (human)
T1 construct: the cells carry the complete allele; also called C1R-MICA*001; C1R-MICA*01
T1 chain: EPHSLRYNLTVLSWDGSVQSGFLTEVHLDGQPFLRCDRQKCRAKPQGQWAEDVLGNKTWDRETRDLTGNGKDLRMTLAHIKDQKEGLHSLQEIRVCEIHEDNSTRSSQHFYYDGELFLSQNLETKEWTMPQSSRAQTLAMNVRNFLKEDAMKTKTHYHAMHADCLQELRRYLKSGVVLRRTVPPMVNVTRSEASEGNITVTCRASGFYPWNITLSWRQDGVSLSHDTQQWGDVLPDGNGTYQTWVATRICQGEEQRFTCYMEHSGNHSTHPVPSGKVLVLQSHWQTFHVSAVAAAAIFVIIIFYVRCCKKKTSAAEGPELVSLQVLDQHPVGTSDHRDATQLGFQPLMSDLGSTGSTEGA
Assay: flow cytometry, MFI against antibody concentration on C1R-MICA*01 cells
observedProperty: EC50 (read off the curve)

[
  {
    "binder": "CHG1-M-MIA-10F3 (antibody, V domains shown) VH: QVQLQQSAAELARPGASVKMSCKASGYTFTSYTMHWVKQRPGQGLEWIGYINPSSGYTEYNQKFKDKTTLTVDKSSTTSYMQLSSLTSDNSAVYYCARGGDWDVDWFVYWGQGTLVTVSA VL: QIVLTQSPAIMSASPGEKVTITCSASSSISYMHWFQQKPGTSPKLWIYSTSKLASGVPARFSGSGSGTSHSLTISRMEAEDAATYYCQHRSTYPFTFGSGTKLEIK",
    "EC50 (read off the curve)": "~0.5 µg/mL"
  },
  {
    "binder": "CHG1-M-MIA-12A10 (antibody, V domains shown) VH: QVQLQQSGADLVRPGASVRLSCRASGYSFTNYWMNWVKQRPGQGLEWIGMIHPSDSETRLNQKFKDKATLTVDKSSNTAYMQLSSPTSEDSAIYYCARDDFFTMDYWGQGTSVTVSS VL: DILLTQSPAILSVSPGERVSFSCRASQNIVTSIHWYQQSTNGSPRLLIKYASESISGIPSRFSGSGSGTDFTLTINSVESEDVADYYCQQSNIWPLTFGAGTKLELK",
    "EC50 (read off the curve)": "~1 µg/mL"
  },
  {
    "binder": "antibody 20C6 (antibody, V domains shown, Murine hybridoma antibody of IgG1 isotype as tested) VH: QITLKESGPGILKPSQTLSLTCSFSGFSLSTSGMGVGWIRQPSGKGLEWLAHIWWDDDKYYNPSLKSQLTISKDTSRNQVFLRITSVDTADTATYYCARRTQGYFDYWGQGTTLTVSS VL: DIVMTQSPATLSVTPGDRVSLSCRASQSISDYLHWYQQKSHESPRLLIKYASQSISGIPSRFSGSGSGSDFTLSINSVEPEDVGVYYCQNGHSFPWTFGGGTKLEIK",
    "EC50 (read off the curve)": "~0.3 µg/mL"
  }
]

Now for the binder whose EC50 (read off the curve) we want.
Task: Please look up its EC50 (read off the curve): CHG1-M-MIA-18E8 (antibody, V domains shown) VH: DVQLQESGPDLVNPSQSLSLICTVTGYSITSDYSWHWIRQFPGNKLEWMGNIHYSGRINYNPSLRSRISITRDTSKNQFFLQLISVTTEDTATYYCATRRTFGNFEDYWGQGTTLTVSS VL: QIVLSQSPATLSVSPGEKVTMTCRSSSSVNYMHWYQQKPGSSPKPWIYATSTLASGVPARFSGSGSGTSYSLTISRVEAEDAATYYCQQWSSNPLTFGAGTKLELK
Result: ~0.5 µg/mL
